Biological target: BRN2 (POU3F2), purified BRN2^WT (Homo sapiens, UniProt P20265)
Sequence (P20265 264-415): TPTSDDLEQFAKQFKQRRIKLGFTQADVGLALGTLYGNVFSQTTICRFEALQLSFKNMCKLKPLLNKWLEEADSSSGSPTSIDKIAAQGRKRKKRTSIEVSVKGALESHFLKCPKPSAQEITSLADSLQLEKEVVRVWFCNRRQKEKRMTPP
quantity.name: Kd
Write the numeric value and append its unit.

// recorded Kd for Clc1ccc2cc(-c3csc(-c4ccc[nH]4)n3)oc2c1 : 2.04 µM

###

System: BRN2 (POU3F2), luciferase reporter assay
Assay: cells
Conditions: read-out: % of Inhibition (Luciferase assay) / 30µM
Output schema: class label derived from inhibition at 30 µM. Mapping: bottom range: < -20%; center range: ≥ -20% and < 50%; top range: ≥ 50%

Query: For the record Cn1c(-c2ccc(CO)o2)nc2ccccc21 , report the class its inhibition at 30 µM corresponds to.
Response: bottom range

Query: For the record COc1ccc(CNc2ccccc2)c2ccccc12 , report the class its inhibition at 30 µM corresponds to.
Response: center range

Query: For the record Cc1ccc(NCc2c[nH]c3ccccc23)cc1 , report the class its inhibition at 30 µM corresponds to.
Response: top range

Query: For the record Oc1ccccc1/C=N\Nc1nc2ccccc2[nH]1 , report the class its inhibition at 30 µM corresponds to.
Response: top range

Query: For the record O=C(CSc1nc2ccccc2[nH]1)c1ccc(Cl)cc1 , report the class its inhibition at 30 µM corresponds to.
Response: center range

Query: For the record c1ccc(NCc2csc3ccccc23)cc1 , report the class its inhibition at 30 µM corresponds to.
Response: bottom range

Query: For the record Oc1cccc(/C=N/Nc2nc3ccccc3[nH]2)c1 , report the class its inhibition at 30 µM corresponds to.
Response: bottom range

Query: For the record Oc1ccc(/C=N/Nc2nc3ccccc3[nH]2)c(O)c1 , report the class its inhibition at 30 µM corresponds to.
Response: top range

Query: For the record Cc1ccc(-c2noc(-c3ccncc3)n2)cc1 , report the class its inhibition at 30 µM corresponds to.
Response: bottom range

Query: For the record Oc1ccccc1/C=N/Nc1nc2ccccc2[nH]1 , report the class its inhibition at 30 µM corresponds to.
Response: center range

Query: For the record Oc1ccc(Br)cc1/C=N/Nc1nc2ccccc2[nH]1 , report the class its inhibition at 30 µM corresponds to.
Response: center range
